Recorded growth for the following molecules
Tested on: NCI/ADR-RES ovarian
TEST_METHOD_NOTES: NCI-60 one-dose screen, 48 h (100 = growth as untreated, 0 = no growth, -100 = all killed)
REPORTED_CONDITIONS: 10 µM unless noted
Compounds without any hit were thinned out: in the full panel of roughly 83,000, 20% have a hit.
MEASURE_NAME: growth (%)

molecule=Nc1nc(-c2cccc(Br)c2)cc(-c2cc3ccccc3oc2=O)n1 quantitative_readout=105
molecule=CCCCCCC(=O)C(C)C quantitative_readout=103
molecule=CCOc1ccc(/C=N/NC(=O)c2cccc3ccccc23)cc1OCC quantitative_readout=97.9
molecule=COc1ccc(OC)c(Cn2cc3c(c2)-c2oncc2CC3)c1 quantitative_readout=1.37
molecule=COC(=O)CC(=O)C(=O)OC quantitative_readout=106
molecule=COC(=O)c1ccc2[nH]c(O)c(C(=Nc3ccc(N(C)C(=O)CN4CCN(C)CC4)cc3)c3ccc(C)cc3)c2c1 quantitative_readout=70.7
molecule=COc1cc(Cn2ccc3c2-c2oncc2CC3)cc(OC)c1 quantitative_readout=-13.9
molecule=COc1ccc(C2=C/C(=C\c3ccc(Cl)cc3)C(=O)NN2C(=S)NN)cc1 quantitative_readout=94.5
molecule="NC(=O)CC(NC(=O)COc1ccc(Cl)cc1Cl)C(=O)O (centres undefined)" quantitative_readout=112
